# assay-summary: Novel Modifiers of Survival Motor Neuron (SMN) Protein: Gene Identification via Genome-wide siRNA Screen;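 also: luminescence tracks full-length SMN protein made from the SMN2 reporter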
# measurement-context: HEK293T SMN2-luciferase reporter, siRNA knockdown, 72 h; actives lie on both sides
In all, about 31,000 sequences went through this assay and about 1,400 (4.5%) were called active. Shown is part of a subset that was picked to be rich in actives.
quantity-name: median seed-adjusted z-score

>>> meas_value("GGACGUGACCAUCAUGUACTT against IRF7")
-0.304
>>> meas_value("GCAUCCCACUACUACAAAUTT against KSR2")
-0.371
>>> meas_value("GAUCUGUGGUUGCAAACGATT against TRMT1")
-0.224
>>> meas_value("GGCCGUUACUGAUUGAGCUTT against CAPN7")
0.125
>>> meas_value("GGAACAUCUUUGUACCUAUTT against NARG1")
-1.02

----------
# assay-summary: Novel Modifiers of Survival Motor Neuron (SMN) Protein: Gene Identification via Genome-wide siRNA Screen;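 also: luminescence tracks full-length SMN protein made from the SMN2 reporter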
# measurement-context: HEK293T SMN2-luciferase reporter, siRNA knockdown, 72 h; actives lie on both sides
Among all 31,000 sequences or so, about 1,400 (4.5%) were called active. Shown is part of a subset that was picked to be rich in actives.
Classification field. Basis: median seed-adjusted z-score. Definitions: I (below -0.2), II (-0.2 to below 0.09), III (0.09 or more)

>>> label_value("GGCUUAAUGUGGUGAUGUUTT against COL7A1")
"III"
>>> label_value("GGCCUAAGCUAAAUCGAGATT against SKP2")
"II"
>>> label_value("CCAGAGAAAUGAGAUUGGATT against ZNF195")
"II"
>>> label_value("GGCAAAAUCUGGACACCAUTT against TFAP4")
"II"
>>> label_value("GCCUCUACAUCUAGUGAUATT against JMJD1C")
"II"
>>> label_value("AGAUCUGCAUGAAACAACATT against VPS16")
"III"
>>> label_value("CCAUCAAAAUCGCAGACUUTT against DDR1")
"II"
>>> label_value("GCAUGUAAGAAUCCACAAUTT against ZNF187")
"III"
>>> label_value("AAAACUUACGAACAACAAATT against TBR1")
"I"
>>> label_value("GUACGUCCAUUAUGGAGAATT against GPR82")
"I"
>>> label_value("GCUUUAUAAGUGUAGCGAATT against ZNF749")
"III"
>>> label_value("GAAUUGAAACGAGCUAGAATT against TAF13")
"I"
>>> label_value("GGAUUACGUAUCAGACAUATT against CNGA1")
"I"
>>> label_value("GAAUGAUUUUCCAAAUGGATT against SLC25A21")
"I"
>>> label_value("GGCAAAUGGUUGAGACUGATT against YWHAE")
"III"
>>> label_value("GCAUGCCCAUGAACAAAAATT against B3GNT1")
"III"

----------
# assay-summary: Novel Modifiers of Survival Motor Neuron (SMN) Protein: Gene Identification via Genome-wide siRNA Screen;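 also: luminescence tracks full-length SMN protein made from the SMN2 reporter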
# measurement-context: HEK293T SMN2-luciferase reporter, siRNA knockdown, 72 h; actives lie on both sides
Among all 31,000 sequences or so, about 1,400 (4.5%) were called active. The full list was thinned out, with actives kept by preference.
quantity-name: median seed-adjusted z-score

>>> meas_value("GAAUUAUGCUACUCGAGAATT against EIF3A")
-0.689
>>> meas_value("CAUCAGCACUAGCACCUCATT against ZNF213")
1.37
>>> meas_value("CCAUUAAUGAAUUAGUCUATT against TXN")
-0.195
>>> meas_value("AGUGGUCCCUUCACAGGAATT against GNRH2")
1.13
>>> meas_value("CAUCUGACCCUAACUGAAATT against ZMYND10")
0.255
>>> meas_value("GGGACAUGGGAAUGCAAUATT against MSR1")
0.0743
>>> meas_value("CUGUGAAAAUGGGACGGGATT against NDUFA6")
-0.457
>>> meas_value("GCAGGUACAUCUCGCCUGATT against ENO1")
0.0766
>>> meas_value("CUAUCAGGGAAAUUACGUATT against ZNF713")
-0.0652
>>> meas_value("AGAUGGAGUUUGAUCCUAATT against POLR2G")
-4.19
>>> meas_value("CAACUAGUGGAGAAGAUCATT against FAM63B")
0.111
>>> meas_value("AGUUUGAUGUUAUCAAUCUTT against PRKAG1")
0.431
>>> meas_value("UCGAGGAAAUGAUCCGGGATT against GALE")
-0.153
>>> meas_value("CAUCUUGAAGUCUUAUUAATT against MYOCD")
-0.121
>>> meas_value("CCAUCUCGACUGACAAGAATT against TNNI3K")
-0.178
>>> meas_value("GGAUGAUAGAGGAAUUGUATT against SKIV2L2")
0.642
>>> meas_value("GCCUUCUCCUCUCAUAACATT against ZNF683")
-0.452
>>> meas_value("CGACAUGAUCUCCUACUCATT against ABLIM2")
-0.26
